target: Spike protein of SARS-CoV-2 strain BA.2.86 (hCoV-19/France/IDF-IPP17625/2023) (SARS-CoV-2); assay: cell-based or functional assay
test-readout: IC50, S-Fuse neutralization of live virus (mg/L)
Note: unit mg/L is implicit; provide only the numeric part.

Illustrative cases are given below, each with its answer.
binder	measured-value
SPK002M A3 antibody (antibody, human IgG1, kappa, V domains shown) VH: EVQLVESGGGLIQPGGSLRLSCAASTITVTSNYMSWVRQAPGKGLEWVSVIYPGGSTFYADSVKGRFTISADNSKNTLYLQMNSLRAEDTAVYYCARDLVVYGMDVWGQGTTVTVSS VL: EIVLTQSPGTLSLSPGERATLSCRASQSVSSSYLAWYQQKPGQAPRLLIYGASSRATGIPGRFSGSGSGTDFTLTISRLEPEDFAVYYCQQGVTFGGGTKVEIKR	0.05
SPK002M A2 antibody (antibody, human IgG1, kappa, V domains shown) VH: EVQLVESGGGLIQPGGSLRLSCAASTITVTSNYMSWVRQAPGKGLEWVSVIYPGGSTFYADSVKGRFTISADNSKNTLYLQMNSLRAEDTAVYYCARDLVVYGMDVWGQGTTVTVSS VL: EIVLTQSPGTLSLSPGERATLSCRASQGVSSSYLAWYQQKPGQAPRLLIYGASSRATGIPGRFSGSGSGTDFTLTISRLEPEDFAVYYCQQGVTFGGGTKVEIKR	0.05

# evaluate next
Please report the recorded IC50, S-Fuse neutralization of live virus for SPK002M C2 antibody (antibody, human IgG1, kappa, V domains shown) VH: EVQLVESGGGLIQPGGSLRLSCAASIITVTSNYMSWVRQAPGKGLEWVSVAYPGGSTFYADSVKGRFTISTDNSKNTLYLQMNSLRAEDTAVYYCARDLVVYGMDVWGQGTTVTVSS VL: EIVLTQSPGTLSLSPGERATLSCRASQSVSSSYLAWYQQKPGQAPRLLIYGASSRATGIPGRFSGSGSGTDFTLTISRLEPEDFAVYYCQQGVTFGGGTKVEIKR .
0.05

Data provenance is patent US12281155.
